Measured Mean % WT Binding of individual entries
# study system: human CD33 S131I (human, UniProt P20138 18-364)
# Sequence (P20138 18-364 S131I limits assumed): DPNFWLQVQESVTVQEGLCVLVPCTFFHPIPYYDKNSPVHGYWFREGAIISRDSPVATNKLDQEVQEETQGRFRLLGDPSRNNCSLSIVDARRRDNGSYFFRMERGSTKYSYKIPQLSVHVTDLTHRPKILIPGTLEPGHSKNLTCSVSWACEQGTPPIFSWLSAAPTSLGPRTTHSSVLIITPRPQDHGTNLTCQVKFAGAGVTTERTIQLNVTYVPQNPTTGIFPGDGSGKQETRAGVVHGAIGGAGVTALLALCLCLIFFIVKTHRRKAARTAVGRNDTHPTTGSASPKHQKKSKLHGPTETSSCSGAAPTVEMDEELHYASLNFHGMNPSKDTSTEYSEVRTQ
# experimental protocol: flow cytometry, HEK293-T, IgG;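 also: CD33 point mutants transiently expressed, antibody binding measured by fluorescence in duplicate, background subtracted and scaled to binding on wild-type CD33 as 100%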
observation type: Mean % WT Binding (% WT binding)

Refmab #1 (antibody, human IgG1, V domains shown, tested in IgG format; also called hP67.6) VH: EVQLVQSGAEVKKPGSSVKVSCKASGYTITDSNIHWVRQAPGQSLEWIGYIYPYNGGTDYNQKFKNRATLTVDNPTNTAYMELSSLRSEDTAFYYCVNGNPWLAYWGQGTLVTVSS VL: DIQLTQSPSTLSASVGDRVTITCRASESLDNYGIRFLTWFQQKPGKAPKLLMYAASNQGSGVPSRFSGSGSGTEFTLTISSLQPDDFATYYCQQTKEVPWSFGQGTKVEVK	96.6
Refmab #4 (antibody, human IgG1, V domains shown, tested in IgG format) VH: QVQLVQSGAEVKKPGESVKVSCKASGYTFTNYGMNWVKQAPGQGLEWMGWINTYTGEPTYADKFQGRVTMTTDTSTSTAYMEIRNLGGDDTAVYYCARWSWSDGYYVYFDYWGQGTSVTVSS VL: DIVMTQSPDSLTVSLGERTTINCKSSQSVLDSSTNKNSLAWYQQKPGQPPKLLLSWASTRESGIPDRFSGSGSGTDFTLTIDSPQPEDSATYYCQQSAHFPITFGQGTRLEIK	99.6
Refmab #3 (antibody, human IgG1, V domains shown, tested in IgG format) VH: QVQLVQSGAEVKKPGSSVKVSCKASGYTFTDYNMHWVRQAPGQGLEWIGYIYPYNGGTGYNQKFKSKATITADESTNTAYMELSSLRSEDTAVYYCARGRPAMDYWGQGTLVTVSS VL: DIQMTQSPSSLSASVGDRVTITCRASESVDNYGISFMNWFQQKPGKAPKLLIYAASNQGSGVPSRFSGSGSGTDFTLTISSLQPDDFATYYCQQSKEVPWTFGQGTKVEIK	95.7
Refmab #2 (antibody, human IgG1, V domains shown, tested in IgG format) VH: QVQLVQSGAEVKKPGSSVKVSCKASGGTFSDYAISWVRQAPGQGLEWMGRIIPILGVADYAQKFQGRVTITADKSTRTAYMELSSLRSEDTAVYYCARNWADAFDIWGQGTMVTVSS VL: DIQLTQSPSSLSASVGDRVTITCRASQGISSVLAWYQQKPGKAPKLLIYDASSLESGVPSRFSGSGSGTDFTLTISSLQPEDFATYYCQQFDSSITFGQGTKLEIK	110

Origin of measurements: patent US20260242735A1
